MEASURED ENDPOINT: melting point

COMPOUND: O=C(C=Cc1ccccc1)N1CCc2c([nH]c3ccccc23)C1c1ccc2c(c1)CCC2 (stereo not drawn)
melting point: 223 °C
//
COMPOUND: O=C1NC(=S)NC(=O)C1=Cc1c[nH]c2ccccc12
melting point: 320 °C
//
COMPOUND: Cc1ccc2c(c1NC(=O)NCC1(c3ccccc3)CCCC1)OC(C)(C)C2
melting point: 186 °C
//
COMPOUND: O=S(=O)(c1cccc(-c2cc(-c3nc(-c4ccc(C(F)(F)F)cc4)cc(C(F)(F)F)n3)ccn2)c1)N1CCOCC1
melting point: 202 °C
//
COMPOUND: NC(=O)c1ccc(C(O)c2c(O)c(=O)ccn2CCO)cc1 (stereo not drawn)
melting point: 215 to 216 °C

The recorded melting point for COC(=O)c1ccc(OCCNC(=O)C2Cc3ccccc3N2S(=O)(=O)c2ccc(-c3ccc(F)cc3F)cc2)cc1F (stereo not drawn) is 65 to 68 °C

The recorded melting point for "COCCOc1cc2ncnc(NC3=CC(=O)C(NCc4cccc(C)c4)=CC3=O)c2cc1OC" is 241 to 242 °C

The recorded melting point for COc1ccc(C(O)(Cc2ccncc2)c2ccncc2)cc1OC1CCCC1 (stereo not drawn) is 99 to 103 °C

The recorded melting point for "O=C(O)[C@@H]1CN[C@H](C(=O)O)C1" is 219 to 220 °C

The recorded melting point for "CCC(=O)N1CCC(NC(=O)Nc2ccc(Br)cc2)CC1" is 233 to 239 °C

The recorded melting point for "COC(=O)c1cccc(/C=C/c2cccc(Br)c2)c1" is 79 to 84 °C

The recorded melting point for "C=CCn1c(=O)[nH]c(=O)c2[nH]c(C34CC5CC(CC3C5)C4)nc21" is > 270 °C

The recorded melting point for "O=C(O)CCOCc1ccccc1" is 35.2 °C

The recorded melting point for CCN(c1cccc(Cl)c1)C(C(=O)O)c1c(Cl)cccc1Cl (stereo not drawn) is 120 °C

The recorded melting point for "CC(C)(C)OC(=O)CN(C(=O)CNC(=O)c1ccc(Cl)c(Cl)c1)c1ccccc1" is 95 °C

---

MEASURED ENDPOINT: melting point

Answered cases to consult:
COMPOUND: CC(=O)Nc1c(C)ccc(N)c1C
melting point: 195 to 197 °C
--
COMPOUND: CCCCc1nn(-c2cc([N+](=O)[O-])ccc2Br)c(=O)[nH]1
melting point: 125 to 127 °C
--
COMPOUND: NNc1nncc(-c2ccc(F)cc2)n1
melting point: 228 to 231 °C
--
COMPOUND: COC1CCc2oc3ccc(Br)cc3c(=O)c2C1 (stereo unspecified)
melting point: 139 to 142 °C
--
COMPOUND: CC(C)(C)OC(=O)NC1CCN(C/C=C\CC(c2ccccc2)c2ccccc2)CC1
melting point: 105 to 108 °C

The recorded melting point for CC1(c2cccs2)Cc2cc(OCC(=O)O)c(Cl)c(Cl)c2C1=O (stereo unspecified) is 161 to 162 °C

The recorded melting point for CCCCCCCCCC1CNC(=O)O1 (stereo unspecified) is 83 to 85 °C

The recorded melting point for "COc1ccc(C(=O)n2c(C)c(Cc3cc(=O)n(-c4cccc(C(F)(F)F)c4)[nH]3)c3cc(OC)ccc32)cc1" is 91 to 94 °C

---

MEASURED ENDPOINT: melting point

Answered cases to consult:
COMPOUND: CCCCCCCCC#Cc1c(F)ccc(C(=O)O)c1F
melting point: 117 °C

COMPOUND: CN(CCc1ccc(NS(C)(=O)=O)cc1)Cc1cc2cc(NS(C)(=O)=O)ccc2o1
melting point: 177 to 179 °C

COMPOUND: CC1=C2C(Br)CC3C4CCCC4(C)CCC3C2(C)CCC1=O (stereo unspecified)
melting point: 124 to 125 °C

COMPOUND: CC(=O)c1sc(N2CCN(CC3CC3(F)F)C2=O)nc1C (stereo unspecified)
melting point: 146 to 148 °C

COMPOUND: CCOC(=O)c1ccccc1N(CC(=O)OC(C)(C)C)C(=O)CNC(=O)Nc1cccc(C)c1
melting point: 142 °C

The recorded melting point for "Cn1nc(Br)c([N+](=O)[O-])c1NC(C)(C)C" is 75 to 77 °C

The recorded melting point for "Cn1c(=O)c2c(nc(C=Cc3cccc([N+](=O)[O-])c3)n2C)n(C)c1=O" is 306 to 308 °C

The recorded melting point for CNC(=S)C1(c2cncc(Br)c2)CCCCC1=O (stereo unspecified) is 201 to 203 °C

---

MEASURED ENDPOINT: melting point

Answered cases to consult:
COMPOUND: Cc1ccc(C2OC(CO)C(O)C(O)C2O)cc1Cc1ccc(-c2ccc(F)cc2)s1 (stereo not given)
MEASURED ENDPOINT: melting point
ASSAY RESULT: 106 to 107 °C

COMPOUND: O=C1c2ccccc2CNc2nc3ccc(Br)cc3c(Cl)c21
MEASURED ENDPOINT: melting point
ASSAY RESULT: 260 to 264 °C

COMPOUND: N#Cc1cnc2sc(-c3cccc(C=O)c3)cc2c1Cl
MEASURED ENDPOINT: melting point
ASSAY RESULT: > 250 °C

The recorded melting point for "Oc1ccc(C2CCOCC2)cc1Cl" is 123 to 125 °C

The recorded melting point for "CCCCCCc1cc2c(cc1/C=C/c1ccc(C(=O)O)cc1)C(C)(C)CCC2(C)C" is 134 to 136 °C

The recorded melting point for COc1ccc(Cl)cc1C(=O)NCCc1ccc(-c2ccc(OC(C)C(=O)O)cc2)cc1 (stereo not given) is 145 °C

The recorded melting point for "COc1cc2c(Nc3cc(O)c(C)cc3F)ncnc2cc1O" is 276 to 278 °C

The recorded melting point for "Cc1ccc(N(Cc2cccnc2)S(C)(=O)=O)c(C)c1" is 62 to 65 °C

The recorded melting point for "CCS(=O)(=O)c1cc(S(N)(=O)=O)sc1S(=O)(=O)CC" is 176 to 177 °C

The recorded melting point for "Cc1oc(-c2ccc(C(F)(F)F)cc2)nc1-c1cccc(-c2ccc(O)cc2)c1" is 133 to 135 °C

---

// reported melting point for each item listed

The recorded melting point for "Cc1nnc(NC2CCCCC2)s1" is 192 to 194 °C

The recorded melting point for "COc1ccc(CC(=O)c2cc(OC)cc(OC)c2)cc1" is 93 to 94 °C

---

// reported melting point for each item listed

COMPOUND: CN(C)CCCCCCCOc1ccc2oc(-c3ccccc3)cc(=O)c2c1
melting point: 90 to 91 °C
--
COMPOUND: COC(=O)CCC(=O)c1ccc(-c2ccc(C(F)(F)F)cc2)cc1
melting point: 140 to 142 °C
--
COMPOUND: CCOC(=O)On1nnc2ccc(Cl)cc21
melting point: 160 to 162 °C
--
COMPOUND: O=C(O)CCC(CC=Cc1cccc(Cl)c1)(C(=O)C=Cc1ccc(Cl)cc1)c1ccccc1 (stereo not given)
melting point: 65 to 105 °C
--
COMPOUND: CCC(O)(c1ccsc1)c1oc(C)nc1C (stereo not given)
melting point: 81 to 83 °C

The recorded melting point for "CCCCCCCCCCCCS(=O)(=O)Nc1cc(NC(=O)c2ccc(F)c(F)c2)ccc1OC" is 132 °C

The recorded melting point for "CCNC(=O)n1nc(Oc2ccc([N+](=O)[O-])c(C)c2)cc1C" is 67 to 69 °C

The recorded melting point for CCCOC(=O)c1cccc2c1S[C@@H](c1ccc(OC)cc1)[C@@H](OC(C)=O)C(=O)N2CCN(C)C (racemic) is 107 to 109 °C

The recorded melting point for CN(C)C(=O)CCC(NC(=O)C=Cc1ccco1)C(=O)N(C)C (stereo not given) is 178 to 180 °C

The recorded melting point for CC1CCC(C(=O)N(C)C)=C2NC=C(C(N)=O)C(=O)N21 (stereo not given) is 220 °C

---

// reported melting point for each item listed

COMPOUND: CN1CCN(C(=O)CCC(=O)c2ccc3[nH]c4nc(Cl)ccc4c3c2)CC1
MEASURED ENDPOINT: melting point
ASSAY RESULT: 236 °C
//
COMPOUND: N=C(N)Nc1nc(CSCCC(N)=O)cs1
MEASURED ENDPOINT: melting point
ASSAY RESULT: 193 to 194 °C
//
COMPOUND: CC(=CC(=O)O)c1ccc2[nH]cc(-c3cc(C(C)(C)C)cc(C(C)(C)C)c3OCC(F)F)c2c1
MEASURED ENDPOINT: melting point
ASSAY RESULT: 135 to 145 °C
//
COMPOUND: CCC1(CC)C(=O)N(C(C)C)CC(C)(C)N1OC(C)(C)C#N
MEASURED ENDPOINT: melting point
ASSAY RESULT: 84 to 89 °C

The recorded melting point for "CCOC(=O)COc1c(C)c(C(F)(F)F)nc(C(F)(F)F)c1C(=O)OCC" is 42 to 44 °C

The recorded melting point for CCC(CC)C(NS(=O)(=O)c1ccc(Cl)s1)c1ncnn1Cc1ccc(OC)cc1 (stereo unspecified) is 136 to 137 °C

The recorded melting point for CC(C)(C)c1cc(C(O)C#Cc2ccc(C(=O)O)cc2)ccc1N1CCCC1 (stereo unspecified) is 150 °C

The recorded melting point for "COc1c(Cl)c(Cl)c2c(-c3ccccc3F)noc2c1Cl" is 120 to 140 °C
